Recorded values, source ChEMBL document CHEMBL3091364.

# Tested target: 5-hydroxytryptamine receptor 7 (Homo sapiens) (UniProt P34969)
# Sequence (P34969 whole entry): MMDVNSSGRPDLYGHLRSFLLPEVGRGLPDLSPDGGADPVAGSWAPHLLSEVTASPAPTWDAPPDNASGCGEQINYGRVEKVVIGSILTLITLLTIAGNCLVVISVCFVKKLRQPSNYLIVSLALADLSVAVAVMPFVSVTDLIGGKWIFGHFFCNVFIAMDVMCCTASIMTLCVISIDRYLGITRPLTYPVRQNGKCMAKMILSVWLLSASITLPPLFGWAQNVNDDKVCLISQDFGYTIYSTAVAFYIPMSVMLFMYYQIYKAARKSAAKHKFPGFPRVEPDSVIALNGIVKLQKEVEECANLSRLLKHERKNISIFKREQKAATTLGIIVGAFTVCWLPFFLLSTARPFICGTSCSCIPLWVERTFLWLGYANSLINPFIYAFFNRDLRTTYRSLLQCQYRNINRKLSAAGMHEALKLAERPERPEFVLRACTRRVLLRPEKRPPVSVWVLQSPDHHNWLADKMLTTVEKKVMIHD
# Test summary: Inhibition of 5-HT7 receptor (unknown origin) at 10 uM relative to control
// reported inhibition per item
Give the quantity in %, number only.

Cl.NCc1ccc(OCc2cccc(Cl)c2)cc1 | -1.9
Cl.NCc1ccc(OCc2cccc(F)c2)cc1 | 59.1
Cl.NCc1ccc(OCc2ccc(F)cc2)cc1 | 67.7
Cl.NCc1ccc(OCc2ccccc2OC(F)(F)F)cc1 | 38.7
Cl.NCc1ccc(OCc2cccc(OC(F)(F)F)c2)cc1 | 43.6

stdin: Which measured inhibition value corresponds to Cl.NCc1ccc(OCc2ccc(OC(F)(F)F)cc2)cc1 ?
stdout: 29.3

stdin: Which measured inhibition value corresponds to Cl.NCc1ccc(OCc2ccc(Cl)cc2)cc1 ?
stdout: 45.4

stdin: Which measured inhibition value corresponds to Cl.NCc1ccc(OCc2ccccc2F)cc1 ?
stdout: 43.5

stdin: Which measured inhibition value corresponds to Cl.NCc1ccc(OCc2ccccc2)cc1 ?
stdout: 56.3
